PROCEDURE_DETAILS: Binding affinity against Opioid receptor delta 1
Positions of bridges follow the written chain, without caps; N, C: chain ends. Non-standard residues stand in square brackets, D forms with d. Residues, ends and D or L forms follow the SMILES beside them. Pen = CC(C)(S)[C@H](N)C(=O)O
EXPERIMENTAL_READOUT: pKi
# pKi is unitless: minus log10 of the molar concentration; print number only

Exam item: Given CC1(C)SSC[C@H](NC(=O)[C@@H](N)Cc2ccc(O)cc2)C(=O)N[C@@H](Cc2ccccc2)C(=O)N[C@@H]1C(=O)O (H-YCF[Pen]-OH; disulfide 2-4) , state its recorded pKi.
Marked response: 9.13

###

TESTED_TARGET: Mu-type opioid receptor (Cavia porcellus)
Sequence (P97266 whole entry): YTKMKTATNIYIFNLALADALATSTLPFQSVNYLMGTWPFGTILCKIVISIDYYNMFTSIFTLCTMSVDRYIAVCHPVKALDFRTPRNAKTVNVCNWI
PROCEDURE_DETAILS: Binding affinity against mu opioid receptor
Starred links: 1 amine or outer side, 2 acyl side, 3 side chain; linkers in the order of their positions; H or OH if unused. Positions of bridges follow the written chain, without caps; N, C: chain ends. Non-standard residues stand in square brackets, D forms with d. Residues, ends and D or L forms follow the SMILES beside them. dPen = CC(C)(S)[C@@H](N)C(=O)O; CH2CH2 = C(C[*:2])[*:1]
EXPERIMENTAL_READOUT: pKi
# pKi is unitless: minus log10 of the molar concentration; print number only

C[C@@H](NC(=O)[C@@H](N)Cc1ccc(O)cc1)C(=O)NCC(=O)N(C)[C@@H](Cc1ccccc1)C(=O)NCCO [DAMGO]    9.00

Exam item: Given CC1(C)SCCSC[C@@H](NC(=O)[C@@H](N)Cc2ccc(O)cc2)C(=O)N[C@@H](Cc2ccccc2)C(=O)N[C@H]1C(N)=O (H-Y[dC]F[dPen]-NH2; linker 2-4 via CH2CH2) , state its recorded pKi.
Marked response: 9.54

Exam item: Given CC1(C)SCCSC[C@@H](NC(=O)[C@@H](N)Cc2ccccc2)C(=O)N[C@@H](Cc2ccccc2)C(=O)N[C@H]1C(N)=O , state its recorded pKi.
Marked response: 8.87

Exam item: Given CC1(C)SSC[C@@H](NC(=O)[C@@H](N)Cc2ccccc2)C(=O)N[C@@H](Cc2ccccc2)C(=O)N[C@H]1C(=O)O , state its recorded pKi.
Marked response: 6.21
